# experiment: Cytotoxicity against human HeLa cells expressing YFP parkin treated with FCCP/ oligomycin assessed as highest safety dose by DAPI staining analysis
# Format: toxicity, cell-based
# condition: read-out: Activity
Hi all, reminder that labels come from MNTC, split as low interval = under 3 µM, middle interval = from 3 µM up to 10 µM, high interval = 10 µM and over

C[C@H]1CN([C@H]2COc3ccccc3[C@@H]2Nc2ncnc3[nH]c(C4CC4)cc23)CCO1: high interval

Query block: Sort into band: c1ccc2c(c1)CC[C@H](C1CCOCC1)[C@H]2Nc1ncnc2[nH]c(C3CC3)cc12 (single isomer, unassigned)
Result block: low interval

Query block: Sort into band: `C[C@@H]1CN([C@@H]2COc3cc(F)ccc3[C@H]2Nc2ncnc3[nH]c(C(F)(F)F)cc23)C[C@H](C)O1`
Result block: low interval

Query block: Sort into band: `c1ccc2c(c1)CC[C@H](N1C[C@H]3COC[C@H]3C1)[C@H]2Nc1ncnc2[nH]c(C3CC3)cc12`
Result block: low interval

Query block: Sort into band: `C[C@@H]1CN([C@@H]2COc3ccccc3[C@H]2Nc2ncnc3[nH]c(C(F)(F)F)cc23)CCO1`
Result block: middle interval

Query block: Sort into band: `Fc1ccc2c(c1)CC[C@H](N1C[C@H]3COC[C@@H]3C1)[C@H]2Nc1ncnc2[nH]c(C(F)(F)F)cc12`
Result block: middle interval

Query block: Sort into band: `C[C@@H]1CN([C@@H]2COc3ccccc3[C@H]2Nc2ncnc3[nH]c(C4CC4)cc23)C[C@H](C)O1`
Result block: low interval

Query block: Sort into band: C[C@@H]1CN([C@H]2COc3ccccc3[C@@H]2Nc2ncnc3[nH]c(C(F)(F)F)cc23)C[C@H](C)O1 (single isomer, unassigned)
Result block: middle interval

Query block: Sort into band: c1ccc2c(c1)CC[C@@H](N1CCOCC1)[C@@H]2Nc1ncnc2[nH]c(C3CC3)cc12 (single isomer, unassigned)
Result block: high interval

Query block: Sort into band: COC[C@H]1CCN([C@H]2COc3ccccc3[C@@H]2Nc2ncnc3[nH]c(C(F)(F)F)cc23)C1 (single isomer, unassigned)
Result block: middle interval

Query block: Sort into band: Fc1ccc2c(c1)CC[C@H](N1CCOCC1)[C@H]2Nc1ncnc2[nH]c(C(F)(F)F)cc12 (single isomer, unassigned)
Result block: middle interval

Query block: Sort into band: `Fc1ccc2c(c1)CC[C@H](N1C[C@H]3COC[C@H]3C1)[C@H]2Nc1ncnc2[nH]c(C3CC3)cc12`
Result block: high interval

Query block: Sort into band: `CO[C@H]1CCN([C@H]2COc3ccccc3[C@@H]2Nc2ncnc3[nH]c(C4CC4)cc23)C1`
Result block: low interval

Query block: Sort into band: `c1ccc2c(c1)CC[C@H](N1CCOCC1)[C@H]2Nc1ncnc2[nH]c(C3CC3)cc12`
Result block: low interval

Query block: Sort into band: FC(F)(F)c1cc2c(N[C@@H]3c4ccccc4OC[C@H]3C3CCOCC3)ncnc2[nH]1 (single isomer, unassigned)
Result block: middle interval

Query block: Sort into band: FC(F)(F)c1cc2c(N[C@@H]3c4ccccc4OC[C@@H]3C3CCCOC3)ncnc2[nH]1 (single isomer, unassigned)
Result block: high interval

Query block: Sort into band: COC[C@@H]1CCN([C@H]2COc3ccccc3[C@@H]2Nc2ncnc3[nH]c(C(F)(F)F)cc23)C1 (single isomer, unassigned)
Result block: middle interval

Query block: Sort into band: FC(F)(F)c1cc2c(N[C@H]3c4ccccc4OC[C@@H]3C3CCOCC3)ncnc2[nH]1 (single isomer, unassigned)
Result block: high interval

Query block: Sort into band: C[C@H]1CN([C@H]2CCc3ccccc3[C@@H]2Nc2ncnc3[nH]c(C(F)(F)F)cc23)CCO1 (single isomer, unassigned)
Result block: middle interval

###

# experiment: Cmax in C57BL/6 mouse at 100 mg/kg, po administered as single dose by mass spectrometry
# Assay type: ADME, organism-based
# Parameters: dose 100 mg/kg, route po
# condition: in vivo
property measured: Cmax (µM)
Numbers only, in µM.

Query block: Output measured Cmax for this item: `c1ccc2c(c1)OC[C@H](N1CCOCC1)[C@H]2Nc1ncnc2[nH]c(C3CC3)cc12`
Result block: 19.4

###

# experiment: Cytotoxicity against human HeLa cells expressing YFP parkin assessed as highest safety dose by DAPI staining analysis
# Type: toxicity, cell-based
# condition: read-out: Activity
property measured: MNTC (µM)
One number for each entry, in µM.

Some compounds with known MNTC results, for comparison:
FC(F)(F)c1cc2c(N[C@H]3c4ccccc4OC[C@H]3C3CCCOC3)ncnc2[nH]1 (mixture of isomers): 25
FC(F)(F)c1cc2c(N[C@H]3c4ccccc4CC[C@H]3C3CCOCC3)ncnc2[nH]1: 25
C[C@H]1CN([C@@H]2COc3cc(F)ccc3[C@H]2Nc2ncnc3[nH]c(C(F)(F)F)cc23)CCO1: 25
Fc1ccc2c(c1)CC[C@H](N1C[C@H]3COC[C@@H]3C1)[C@H]2Nc1ncnc2[nH]c(C(F)(F)F)cc12: 25
C[C@@H]1COCCN1[C@H]1CCc2ccccc2[C@@H]1Nc1ncnc2[nH]c(C3CC3)cc12 (single isomer, unassigned): 2.8
FC(F)(F)c1cc2c(N[C@@H]3c4ccccc4OC[C@H]3N3CCOCC3)ncnc2[nH]1: 25

Dear reader, for each entry below, please note its MNTC.
1. COC[C@H]1CCCN1[C@H]1COc2ccccc2[C@@H]1Nc1ncnc2[nH]c(C(F)(F)F)cc12 (single isomer, unassigned)
2. C[C@H]1CN([C@@H]2COc3cc(F)ccc3[C@H]2Nc2ncnc3[nH]c(C4CC4)cc23)CCO1
3. Fc1ccc2c(c1)CC[C@@H](N1CCOCC1)[C@@H]2Nc1ncnc2[nH]c(C3CC3)cc12

Result block:
1. 25
2. 25
3. 25

###

# experiment: Cytotoxicity against human HeLa cells expressing YFP parkin treated with FCCP/ oligomycin assessed as highest safety dose by DAPI staining analysis
# Assay type: toxicity, cell-based
# condition: read-out: Activity
Threshold 4 µM: MNTC strictly smaller gives True, otherwise False.

c1ccc2c(c1)CC[C@H](N1C[C@@H]3COC[C@H]3C1)[C@H]2Nc1ncnc2[nH]c(C3CC3)cc12: True
Fc1ccc2c(c1)CC[C@H](N1C[C@@H]3COC[C@H]3C1)[C@H]2Nc1ncnc2[nH]c(C3CC3)cc12: False
c1ccc2c(c1)OC[C@@H](C1CCOCC1)[C@@H]2Nc1ncnc2[nH]c(C3CC3)cc12: True
Fc1ccc2c(c1)OC[C@H](N1C[C@@H]3COC[C@H]3C1)[C@H]2Nc1ncnc2[nH]c(C3CC3)cc12 (single isomer, unassigned): False
C[C@H]1CN([C@H]2CCc3ccccc3[C@@H]2Nc2ncnc3[nH]c(C4CC4)cc23)CCO1 (single isomer, unassigned): True
c1ccc2c(c1)OC[C@H](N1CCOCC1)[C@H]2Nc1ncnc2[nH]c(C3CC3)cc12: False

Now look at this one.
Query block: Criterion: MNTC strictly below 4 µM. Is it met by FC(F)(F)c1cc2c(N[C@@H]3c4ccccc4CC[C@H]3N3C[C@H]4COC[C@H]4C3)ncnc2[nH]1 (single isomer, unassigned) ?
Result block: False

###

# experiment: Cmax in C57BL/6 mouse at 10 mg/kg, po administered as single dose by mass spectrometry
# Format: ADME, organism-based
# Set-up: dose 10 mg/kg, route po
# condition: in vivo
Kindly state Cmax for each of the entries shown.

FC(F)(F)c1cc2c(NC3CCCc4ccccc43)ncnc2[nH]1 (single isomer, unassigned): 490 nM

Query block: Output measured Cmax for this item: `c1ccc2c(c1)OC[C@H](N1CCOCC1)[C@H]2Nc1ncnc2[nH]c(C3CC3)cc12`
Result block: 350 nM

###

# experiment: AUClast in C57BL/6 mouse at 50 mg/kg, po administered as single dose by mass spectrometry
# Type: ADME, organism-based
# Set-up: dose 50 mg/kg, route po
# condition: in vivo
property measured: AUC(0-t) (µM·h)
One number for each entry, in µM·h.

c1ccc2c(c1)OC[C@H](N1CCOCC1)[C@H]2Nc1ncnc2[nH]c(C3CC3)cc12: 17.3

Turning now to a further record.
Query block: Output measured AUC(0-t) for this item: FC(F)(F)c1cc2c(NC3CCCc4ccccc43)ncnc2[nH]1 (single isomer, unassigned)
Result block: 30.5

###

# experiment: Cytotoxicity against human HeLa cells expressing YFP parkin assessed as highest safety dose by DAPI staining analysis
# Format: toxicity, cell-based
# condition: read-out: Activity
property measured: MNTC
Numeric answer plus unit only.

Some compounds with known MNTC results, for comparison:
C[C@@H]1CN([C@H]2CCc3ccccc3[C@@H]2Nc2ncnc3[nH]c(C4CC4)cc23)C[C@H](C)O1 (single isomer, unassigned): 25 µM
C[C@@H]1CN([C@H]2COc3cc(F)ccc3[C@@H]2Nc2ncnc3[nH]c(C4CC4)cc23)C[C@H](C)O1 (single isomer, unassigned): 25 µM

Turning now to a further record.
Query block: Output measured MNTC for this item: c1ccc2c(c1)CC[C@H](C1CCOCC1)[C@H]2Nc1ncnc2[nH]c(C3CC3)cc12 (single isomer, unassigned)
Result block: 25 µM
